Origin of the recorded values: patent US6342504B1

# STUDY_TARGET: Human rt-PA (Activase) (Homo sapiens)
# Construct: purchased Genentech Inc
# METHOD_DESCRIPTION: biochemical
# REPORTED_CONDITIONS: 30 minute incubation; read-out: rtPA IC50 (Table 3C)
REPORTED_METRIC: IC50

Q) Please state recorded IC50 (tested on Human rt-PA (Activase) (Homo sapiens)) of COc1cccc(S(=O)(=O)Nc2ccc(C)n(CC(=O)N[C@H](C=O)CCCNC(=N)N)c2=O)c1 [Compound 153A]
A) > 2.5 µM

* * *

# STUDY_TARGET: human plasmin (Homo sapiens, UniProt P00747)
# Sequence (P00747 97-580): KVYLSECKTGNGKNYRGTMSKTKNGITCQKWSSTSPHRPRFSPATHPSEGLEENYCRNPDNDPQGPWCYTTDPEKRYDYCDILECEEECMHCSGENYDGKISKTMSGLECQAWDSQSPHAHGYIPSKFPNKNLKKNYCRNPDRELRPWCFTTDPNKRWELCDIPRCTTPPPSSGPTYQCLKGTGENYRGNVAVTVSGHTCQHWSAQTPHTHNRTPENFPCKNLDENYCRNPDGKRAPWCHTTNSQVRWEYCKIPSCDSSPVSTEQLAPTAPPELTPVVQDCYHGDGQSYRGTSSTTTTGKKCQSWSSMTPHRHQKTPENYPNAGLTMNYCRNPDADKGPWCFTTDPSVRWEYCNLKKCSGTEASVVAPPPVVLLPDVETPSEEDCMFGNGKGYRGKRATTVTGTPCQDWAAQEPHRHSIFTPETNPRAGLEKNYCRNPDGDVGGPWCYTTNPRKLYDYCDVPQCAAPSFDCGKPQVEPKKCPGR
# Sequence (P00747 581-810): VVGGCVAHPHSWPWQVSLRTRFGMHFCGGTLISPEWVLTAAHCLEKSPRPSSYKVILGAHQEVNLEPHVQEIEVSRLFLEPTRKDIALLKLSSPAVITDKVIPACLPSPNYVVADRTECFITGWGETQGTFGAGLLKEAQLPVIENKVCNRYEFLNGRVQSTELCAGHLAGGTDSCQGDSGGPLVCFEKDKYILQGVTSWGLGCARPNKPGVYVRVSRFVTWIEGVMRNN
# METHOD_DESCRIPTION: biochemical
# REPORTED_CONDITIONS: 30 minute incubation; read-out: Plasmin IC50 (Table 3B)
pIC50: −log10 of the molar value.
REPORTED_METRIC: pIC50

The cases that follow already have their pIC50 on record.
COMPOUND: Cc1ccc(F)cc1S(=O)(=O)Nc1ccc(C)n(CC(=O)N[C@H](C=O)CCCNC(=N)N)c1=O [Compound 126B]
STUDY_TARGET: human plasmin (Homo sapiens, UniProt P00747)
pIC50: < 5.60
--
COMPOUND: N=C(N)NCCC[C@@H](C=O)NC(=O)Cn1cccc(NS(=O)(=O)Cc2ccccc2F)c1=O [Compound 121J]
STUDY_TARGET: human plasmin (Homo sapiens, UniProt P00747)
pIC50: < 5.60
--
COMPOUND: N=C(N)NCCC[C@@H](C=O)NC(=O)Cn1cccc(NS(=O)(=O)CCc2ccccc2)c1=O [Compound 121G]
STUDY_TARGET: human plasmin (Homo sapiens, UniProt P00747)
pIC50: ~5.60

Q) May I ask what pIC50 has been recorded for COc1ccc(OC)c(S(=O)(=O)Nc2ccc(C)n(CC(=O)N[C@H](C=O)CCCNC(=N)N)c2=O)c1 [Compound 126C] ?
A) < 5.60

Q) May I ask what pIC50 has been recorded for N=C(N)NCCC[C@@H](C=O)NC(=O)Cn1cccc(NS(=O)(=O)Cc2cccc(F)c2)c1=O [Compound 121K] ?
A) < 5.60

Q) May I ask what pIC50 has been recorded for CCc1ccc(NS(=O)(=O)c2cc(F)ccc2C)c(=O)n1CC(=O)N[C@H](C=O)CCCNC(=N)N [Compound 126F] ?
A) ~5.60

Q) May I ask what pIC50 has been recorded for COC(=O)c1ccccc1CS(=O)(=O)Nc1cccn(CC(=O)N[C@H](C=O)CCCNC(=N)N)c1=O [Compound 121M] ?
A) < 5.60

* * *

# STUDY_TARGET: human aPC (Homo sapiens)
# Construct: purchased Hematologic Technologies, Inc
# METHOD_DESCRIPTION: biochemical
# REPORTED_CONDITIONS: 30 minute incubation; read-out: aPC IC50 (Table 3C)
pIC50: −log10 of the molar value.
REPORTED_METRIC: pIC50

Q) May I ask what pIC50 has been recorded for COc1cccc(S(=O)(=O)Nc2ccc(C)n(CC(=O)N[C@H](C=O)CCCNC(=N)N)c2=O)c1 [Compound 153A] ?
A) < 5.60

* * *

# STUDY_TARGET: human alpha thrombin (Homo sapiens, UniProt P00734)
# Construct: Purified human alpha-thrombin; purchased Enzyme Research Laboratories, Inc
# METHOD_DESCRIPTION: Thrombin (fIIa) IC50 assay, chromogenic substrate Pefachrome t-PA
# Type: biochemical
Structures can show the parent of a compound that is named as a salt.
REPORTED_METRIC: pIC50
For clarity, pIC50 is expressed as the negative log10 of concentration in mol/L.

Q) May I ask what pIC50 has been recorded for N=C(N)NCCC[C@@H](C=O)NC(=O)Cn1cccc(NS(=O)(=O)Cc2cccc(F)c2)c1=O [Compound 121K] ?
A) 9.05

Q) May I ask what pIC50 has been recorded for "N=C(N)NCCC[C@@H](C=O)NC(=O)Cn1cccc(NS(=O)(=O)c2ccccc2)c1=O" ?
A) 9.01

Q) May I ask what pIC50 has been recorded for Cc1ccc(NS(=O)(=O)Cc2ccccc2)c(=O)n1CC(=O)N[C@H](C=O)CCCNC(=N)N [Compound C, trifluoroacetate salt] ?
A) 9.33

* * *

# STUDY_TARGET: Human rt-PA (Activase) (Homo sapiens, UniProt P00750)
# Construct: purchased Genentech Inc
# Sequence (P00750 36-562): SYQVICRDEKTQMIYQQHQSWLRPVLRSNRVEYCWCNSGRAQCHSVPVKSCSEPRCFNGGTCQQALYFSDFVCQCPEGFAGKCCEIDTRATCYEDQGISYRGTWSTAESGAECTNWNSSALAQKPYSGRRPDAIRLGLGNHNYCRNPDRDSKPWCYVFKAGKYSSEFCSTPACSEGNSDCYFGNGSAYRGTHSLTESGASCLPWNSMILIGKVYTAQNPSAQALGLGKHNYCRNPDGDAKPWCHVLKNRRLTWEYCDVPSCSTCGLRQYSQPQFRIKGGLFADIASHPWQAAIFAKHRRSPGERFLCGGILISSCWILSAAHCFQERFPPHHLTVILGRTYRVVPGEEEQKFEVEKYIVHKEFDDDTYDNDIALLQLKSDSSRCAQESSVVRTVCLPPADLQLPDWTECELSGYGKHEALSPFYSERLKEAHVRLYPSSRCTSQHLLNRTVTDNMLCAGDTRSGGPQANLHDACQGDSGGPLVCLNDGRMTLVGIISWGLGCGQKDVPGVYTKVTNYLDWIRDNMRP
# METHOD_DESCRIPTION: biochemical
# REPORTED_CONDITIONS: 30 minute incubation; read-out: rt-PA (IC50) (Table 3A)
pIC50: −log10 of the molar value. Counter-ions that a name gives are not always drawn.
REPORTED_METRIC: pIC50

COMPOUND: Cc1cccc(S(=O)(=O)Nc2cccn(CC(=O)N[C@H](C=O)CCCNC(=N)N)c2=O)c1
STUDY_TARGET: Human rt-PA (Activase) (Homo sapiens, UniProt P00750)
pIC50: < 5.60

COMPOUND: N=C(N)NCCC[C@@H](C=O)NC(=O)Cn1cccc(NS(=O)(=O)c2ccccc2C(F)(F)F)c1=O
STUDY_TARGET: Human rt-PA (Activase) (Homo sapiens, UniProt P00750)
pIC50: < 5.60

COMPOUND: Cc1ccccc1S(=O)(=O)Nc1cccn(CC(=O)N[C@H](C=O)CCCNC(=N)N)c1=O
STUDY_TARGET: Human rt-PA (Activase) (Homo sapiens, UniProt P00750)
pIC50: < 5.60

COMPOUND: COc1cccc(S(=O)(=O)Nc2cccn(CC(=O)N[C@H](C=O)CCCNC(=N)N)c2=O)c1
STUDY_TARGET: Human rt-PA (Activase) (Homo sapiens, UniProt P00750)
pIC50: < 5.60

Q) May I ask what pIC50 has been recorded for COc1ccc(Cl)cc1S(=O)(=O)Nc1cccn(CC(=O)NC(C=O)CCCNC(=N)N)c1=O (stereo not drawn) [2-OMe, 5-Cl-phenyl, trifluoroacetate salt] ?
A) < 5.60

Q) May I ask what pIC50 has been recorded for "N=C(N)NCCC[C@@H](C=O)NC(=O)Cn1cccc(NS(=O)(=O)c2ccccc2N)c1=O" ?
A) < 5.60

Q) May I ask what pIC50 has been recorded for "Cc1ccc(F)cc1S(=O)(=O)Nc1cccn(CC(=O)N[C@H](C=O)CCCNC(=N)N)c1=O" ?
A) < 5.60

Q) May I ask what pIC50 has been recorded for "N=C(N)NCCC[C@@H](C=O)NC(=O)Cn1cccc(NS(=O)(=O)c2cccc(C(F)(F)F)c2)c1=O" ?
A) < 5.60

Q) May I ask what pIC50 has been recorded for "COc1ccccc1S(=O)(=O)Nc1cccn(CC(=O)N[C@H](C=O)CCCNC(=N)N)c1=O" ?
A) < 5.60

* * *

# STUDY_TARGET: human plasmin (Homo sapiens, UniProt P00747)
# METHOD_DESCRIPTION: biochemical
# REPORTED_CONDITIONS: 30 minute incubation; read-out: Plasmin IC50 (Table 3B)
pIC50: −log10 of the molar value.
Listing of recorded pIC50 by entry.

The cases that follow already have their pIC50 on record.
COMPOUND: N=C(N)NCCC[C@@H](C=O)NC(=O)Cn1cccc(NS(=O)(=O)Cc2cc(F)ccc2F)c1=O [Compound 121P]
pIC50: < 5.60

COMPOUND: COc1ccc(OC)c(S(=O)(=O)Nc2cccn(CC(=O)N[C@H](C=O)CCCNC(=N)N)c2=O)c1 [Compound 121E]
pIC50: < 5.60

Q) May I ask what pIC50 has been recorded for N=C(N)NCCC[C@@H](C=O)NC(=O)Cn1cccc(NS(=O)(=O)c2ccccc2F)c1=O [Compound 121A] ?
A) < 5.60

* * *

# STUDY_TARGET: human plasmin (Homo sapiens)
# METHOD_DESCRIPTION: biochemical
# REPORTED_CONDITIONS: read-out: Plasmin IC50 (Table 3B)
REPORTED_METRIC: IC50

Q) May I ask what IC50 has been recorded for CS(=O)(=O)Nc1c(CCc2ccccc2)ccn(CC(=O)N[C@H](C=O)CCCNC(=N)N)c1=O [Compound 134B] ?
A) > 2500 nM

* * *

# STUDY_TARGET: human aPC (Homo sapiens, UniProt P04070)
# Construct: purchased Hematologic Technologies, Inc
# Sequence (P04070 43-197): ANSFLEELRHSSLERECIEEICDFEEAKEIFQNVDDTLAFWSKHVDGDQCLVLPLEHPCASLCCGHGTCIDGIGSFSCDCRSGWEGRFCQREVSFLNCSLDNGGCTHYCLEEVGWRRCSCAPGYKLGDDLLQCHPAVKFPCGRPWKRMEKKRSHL
# Sequence (P04070 212-461): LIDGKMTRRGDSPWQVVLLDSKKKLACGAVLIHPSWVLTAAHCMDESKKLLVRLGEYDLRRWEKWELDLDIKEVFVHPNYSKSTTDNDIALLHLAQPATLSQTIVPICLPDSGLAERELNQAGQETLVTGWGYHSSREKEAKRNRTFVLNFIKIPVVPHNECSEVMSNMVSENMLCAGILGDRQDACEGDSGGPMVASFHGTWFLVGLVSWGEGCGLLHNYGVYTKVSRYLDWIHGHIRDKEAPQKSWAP
# METHOD_DESCRIPTION: biochemical
# REPORTED_CONDITIONS: 30 minute incubation; 1.0 nM enzyme; read-out: IC50 aPC (Table 2)
pIC50: −log10 of the molar value. Where a name gives a salt, the structure may show the parent alone.
REPORTED_METRIC: pIC50

COMPOUND: N=C(N)NCCC[C@@H](C=O)NC(=O)Cn1cccc(NS(=O)(=O)Cc2ccccc2)c1=O [Example 10, trifluoroacetate salt]
pIC50: < 5.60

Q) May I ask what pIC50 has been recorded for Cc1ncc(NS(=O)(=O)Cc2ccccc2)c(=O)n1CC(=O)N[C@H](C=O)CCCNC(=N)N [Compound D, trifluoroacetate salt] ?
A) < 5.60

Q) May I ask what pIC50 has been recorded for N=C(N)NCCC[C@@H](C=O)NC(=O)Cn1cccc(NS(=O)(=O)c2ccccc2)c1=O [Compound B] ?
A) < 5.60
